These measurements were taken from PubChem BioAssay (NCATS).

Reported activity change, negative = inhibition values follow for various molecules
- protocolNotes: AP1 Signaling Pathway (AID 357);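 also: ME-180 reporter cells stimulated with EGF at its EC50 level; % is scaled to controls: 0 for no effect and ±100 for the full control effect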
- settings: ME-180 (cervical carcinoma) AP-1-bla reporter, EGF-induced, beta-lactamase ratio, 5 h; at 7.69 µM (top of the series) unless noted
Results filed as inconclusive are left out.
# number only, unit % dropped from output

Entry under review: "CN1CCN(c2ccncc2S(=O)(=O)N2CCN(C)CC2)CC1" . Reported activity change, negative = inhibition?
5.65

----------
- protocolNotes: MultiTox-Fluor Cytotoxicity Assay - LYMP1-001 - Dead Cells (AID 946);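 also: cells exposed to compound for 16 h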
- settings: LYMP1-001 lymphoblastoid cells, dead-cell protease fluorescence; series mostly up to 92.2 µM
Records with an inconclusive call do not appear. Activity calls are given as the source filed them. Calls come from the whole dose curve; as a rule, active = well fitted cell-killing curve with a large enough effect; inconclusive = small, poorly fitted or top-dose-only effect, or effect the other way; inactive = flat fitted curve, though single readings scatter.
Give one outcome, nothing more. List: yes (1) = active, no (0) = inactive

Solved entries:
{"smilesStructure": "CCCC(=O)OC(=O)CCC", "categoryLabel": "no (0)"}
{"smilesStructure": "Brc1cc(Oc2cc(Br)c(Br)c(Br)c2Br)c(Br)c(Br)c1Br", "categoryLabel": "no (0)"}
{"smilesStructure": "CN(C)c1ccc(C(=N)c2ccc(N(C)C)cc2)cc1", "categoryLabel": "yes (1)"}
{"smilesStructure": "CCCCOC(=O)COc1ccc(Cl)cc1Cl", "categoryLabel": "no (0)"}
{"smilesStructure": "COc1ccc(C)cc1N", "categoryLabel": "no (0)"}
{"smilesStructure": "CCCCNCC", "categoryLabel": "no (0)"}
{"smilesStructure": "C/C=C/C=C/C=O", "categoryLabel": "no (0)"}
{"smilesStructure": "O=C(OCc1ccccc1)c1ccccc1O", "categoryLabel": "no (0)"}
{"smilesStructure": "O=C(O)c1ccc([N+](=O)[O-])cc1", "categoryLabel": "no (0)"}
{"smilesStructure": "CCNC(=S)NCC", "categoryLabel": "no (0)"}

# outcome recorded in this test, key = "Oc1ccc(O)c2c(O)cccc12"
no (0)

What did this assay record as the result for "CCCCCCN" ?
no (0)

Please indicate how the test categorized "Nc1cc(C(=O)O)c(O)c(S(=O)(=O)O)c1" .
no (0)

Can you look up the reported call for "Cc1c(C(=O)O)c(O)cc2c1C(=O)c1c(O)c([C@H]3O[C@H](CO)[C@@H](O)[C@H](O)[C@H]3O)c(O)c(O)c1C2=O" for me?
no (0)
